Values compiled from PubChem BioAssay (NCI).

# Test system: MCF7 breast
# assay.info: NCI tumour cell line growth inhibition, 48 h
List of TGI values.

Please review the entries below; each comes with its answer.
COc1ccc(-n2c(SC(CN3CCOCC3)CN3CCCC3=O)nc3ccccc3c2=O)cc1 (stereo unspecified)	> 100 µM
Fc1ccc(-c2sc(-c3ccsc3)cc2Cc2ccsc2)cc1	> 10 µM
Cc1ccc(Cc2cc(N3CCN(c4cccc(Cl)c4)CC3)nnc2C)cc1	> 100 µM

Entry `N#CC(C#N)=NNc1ccc2cn[nH]c2c1` , TGI reported as > 100 µM

Documented TGI of `CCC(=O)Nc1cccc(N=Cc2ccc(OC(=O)/C=C\c3ccccc3)cc2)c1` : > 75 µM

Briefly, TGI measured for CC(=O)OCC1OC(N2C(=O)NC(=O)C3C=C4CCCCC4=CC32)CC1OC(C)=O (stereo unspecified) : > 100 µM

Field TGI (entry N#CC1C[C@@H]2CC3(CCC2CN1C(=O)c1ccccc1)OCCO3 (stereo partly specified) ) reads > 100 µM

* * *

Each entry below carries its recorded TGI.
# Tested on: SW-620 colon
# assay.info: NCI tumour cell line growth inhibition, 48 h

Would you please look over these solved cases?
COc1ccccc1NC(=S)N=Nc1c(O)[nH]c2ccccc12	> 100 µM
O[C@@H]1C[C@H](Cl)c2c(Cl)sc(Cl)c21	> 100 µM

Next up:
For reference, reported TGI for `CCOC(=O)/C=C/C(=O)O/C=C/[N+](=O)[O-]` stands at > 100 µM

* * *

# System: SF-268 CNS
# assay.info: NCI tumour cell line growth inhibition, 48 h
measured.quantity: TGI

Kindly note the recorded TGI for `CN1CCN(Cc2ccc(NC(=O)c3cncc(C#Cc4c(N)ncc5ccc(C#N)cc45)c3)cc2C(F)(F)F)CC1` , which is 1.89 µM

* * *

# System: SK-MEL-28 melanoma
# assay.info: NCI tumour cell line growth inhibition, 48 h
measured.quantity: TGI

N#CC(C#N)=NNc1ccc2cn[nH]c2c1	> 100 µM
O=C(NC(=S)Nc1ccc([N+](=O)[O-])cc1)c1ccc2c(c1)Sc1ccccc1O2	> 100 µM

The record that follows has no TGI shown yet.
Data point: COc1cc(C2c3cc4c(cc3OC(NNC(N)=O)C2C)OCO4)cc(OC)c1OC (stereo not drawn) ; TGI = > 100 µM

* * *

Below, each entry is listed with its recorded TGI.
# Test system: CAKI-1 renal
# assay.info: NCI tumour cell line growth inhibition, 48 h

Worked cases, answers included:
Nc1nc(N)c(CCCCc2ccccc2)c(C=O)n1	> 100 µM
Cc1cc(=O)[nH]c(CNC(=O)c2ccc3ccccc3c2)n1	> 100 µM
O=C(NC(=S)Nc1ccc([N+](=O)[O-])cc1)c1ccc2c(c1)Sc1ccccc1O2	> 100 µM

Attention now shifts to the item below.
Lab book: TGI of `O=C1C=C(Nc2ccccc2C(=O)CC(=O)C(=O)Nc2ccc(Cl)cc2)c2ccccc2C1=O` noted as > 83.4 µM

* * *

# Test system: OVCAR-4 ovarian
# assay.info: NCI tumour cell line growth inhibition, 48 h; in the data active = GI50 below about 0.43 µM; inactive = the rest
Permitted responses: active, inactive

C[C@H](c1ccc(F)cc1CCCC(=O)O)N(c1cc(F)ccc1F)S(=O)(=O)c1ccc(Cl)cc1	inactive
CNC(=O)c1nn(C)c2c1C(C)(C)Cc1cnc(Nc3cccc(N4CCN(C)CC4)c3)nc1-2	active
CNS(=O)(=O)OCC1OC(n2cnc3cncnc32)C(O)C1O (stereo not drawn)	inactive
CN1CCN(Cc2ccc(NC(=O)c3cncc(C#Cc4c(N)ncc5ccc(C#N)cc45)c3)cc2C(F)(F)F)CC1	inactive
CCN1CCC(CC(=O)Nc2n[nH]c3nnc(-c4cccc(F)c4F)cc23)CC1	inactive
OCc1ccc(-c2csc(-c3ccc(CO)o3)c2)o1	inactive

QUERY: Write down the call the test reported for this compound. Item: `C[C@@H](N)COc1ccc(-c2cnc3ccc(N[C@H](C)c4cccc(F)c4)nn23)cc1`
RESULT: inactive

QUERY: Identify the outcome logged in this assay for the compound shown: `Cc1ccc(-c2nc3nc(-c4ccc(F)cc4)nc(N4CCNCC4)c3o2)cc1`
RESULT: inactive

QUERY: Recorded test outcome, item `COc1cc2c3c(n(CCCN4CCNCC4)c(=O)c2cc1OC)-c1cc2c(cc1C3=O)OCO2`
RESULT: inactive

QUERY: How was O=C(/C=C/C12c3ccccc3C(c3ccccc31)C1C(=O)N(c3ccc(Cl)cc3)C(=O)C12)c1ccccn1 (stereo not drawn) classified in this test?
RESULT: inactive

QUERY: Field: outcome | Entry: `COc1ccc(/C=C/C(=O)c2c(O)ccc3c(C)c(C(=O)O)oc23)cc1`
RESULT: inactive

QUERY: Test call for this compound, please: COC1=CC(c2ccc[nH]2)=N/C1=C\c1[nH]c(C)c(C(=O)CCC(=O)Oc2ccc3c(c2)CCC2C3CC[C@]3(C)[C@@H](O)CC[C@@H]23)c1C (stereo partly drawn)
RESULT: inactive

QUERY: Which outcome was assigned to `CN1CC=C(c2cc(NC(=O)Nc3ccc(Oc4ccnc(NC(=O)C5CC5)c4)c(F)c3)cc(C(F)(F)F)c2)CC1` in this test?
RESULT: active
